measured target: GalNAc(b1-3)Gal(a1-4)Gal(b1-4)GlcNAc
assay explanation: glycan array binding signal (z-score within array); higher = stronger binding
condition set: glycan notation: IUPAC condensed, linker removed
Shown is part of a subset that was picked to be rich in the strongest signals.
recorded metric: glycan array binding signal (z-score)

binder="pilr alpha (protein) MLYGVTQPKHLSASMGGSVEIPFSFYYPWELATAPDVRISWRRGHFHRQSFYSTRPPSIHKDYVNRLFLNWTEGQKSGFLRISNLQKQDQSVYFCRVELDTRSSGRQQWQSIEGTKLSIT" quantitative_result=2.72
binder="PNA (Arachis hypogaea), P02872 (protein) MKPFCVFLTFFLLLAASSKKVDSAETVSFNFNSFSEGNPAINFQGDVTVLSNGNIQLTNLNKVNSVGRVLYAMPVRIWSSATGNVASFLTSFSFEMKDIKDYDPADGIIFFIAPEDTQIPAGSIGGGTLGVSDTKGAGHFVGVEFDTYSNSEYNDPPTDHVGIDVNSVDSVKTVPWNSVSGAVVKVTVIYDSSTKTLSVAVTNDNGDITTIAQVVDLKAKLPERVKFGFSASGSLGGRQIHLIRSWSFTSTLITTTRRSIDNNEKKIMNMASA" quantitative_result=-0.197
binder="Cohesin-mDCIR (Macaca mulatta) (protein) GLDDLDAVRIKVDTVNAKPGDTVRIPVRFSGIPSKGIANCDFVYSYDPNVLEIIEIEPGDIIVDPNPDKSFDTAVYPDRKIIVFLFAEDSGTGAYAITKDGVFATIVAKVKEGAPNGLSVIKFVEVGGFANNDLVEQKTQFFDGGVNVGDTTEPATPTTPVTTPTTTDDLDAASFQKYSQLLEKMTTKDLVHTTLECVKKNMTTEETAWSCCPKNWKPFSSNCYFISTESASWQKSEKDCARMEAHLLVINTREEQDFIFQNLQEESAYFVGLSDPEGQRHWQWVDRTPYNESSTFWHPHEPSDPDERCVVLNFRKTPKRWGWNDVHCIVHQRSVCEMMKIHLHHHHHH" quantitative_result=1.26
binder="SEX4 (Arabidopsis thaliana), Q944A8 (protein) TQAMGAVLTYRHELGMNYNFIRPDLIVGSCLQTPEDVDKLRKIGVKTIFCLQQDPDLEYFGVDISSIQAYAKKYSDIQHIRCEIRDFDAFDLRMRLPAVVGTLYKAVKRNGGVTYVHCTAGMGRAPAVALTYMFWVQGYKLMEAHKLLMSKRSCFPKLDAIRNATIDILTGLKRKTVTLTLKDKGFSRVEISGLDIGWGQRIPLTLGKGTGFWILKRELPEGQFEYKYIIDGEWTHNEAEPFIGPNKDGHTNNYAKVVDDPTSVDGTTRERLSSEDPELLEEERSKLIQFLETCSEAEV" quantitative_result=-0.406
binder="AT3G09350(27) (Arabidopsis thaliana), Q84J81 (protein) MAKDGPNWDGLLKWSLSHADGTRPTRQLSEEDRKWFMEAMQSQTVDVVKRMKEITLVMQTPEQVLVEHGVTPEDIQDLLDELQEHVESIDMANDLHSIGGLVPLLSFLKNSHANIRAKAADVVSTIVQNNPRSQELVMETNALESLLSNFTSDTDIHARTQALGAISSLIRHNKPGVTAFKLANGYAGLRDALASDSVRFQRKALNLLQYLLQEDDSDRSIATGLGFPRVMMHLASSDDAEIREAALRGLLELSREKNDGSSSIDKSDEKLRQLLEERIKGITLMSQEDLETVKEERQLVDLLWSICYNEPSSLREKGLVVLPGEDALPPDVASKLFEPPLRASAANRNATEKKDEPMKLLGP" quantitative_result=4.3
binder="Microvirin-2 (Microcystis aeruginosa) (protein) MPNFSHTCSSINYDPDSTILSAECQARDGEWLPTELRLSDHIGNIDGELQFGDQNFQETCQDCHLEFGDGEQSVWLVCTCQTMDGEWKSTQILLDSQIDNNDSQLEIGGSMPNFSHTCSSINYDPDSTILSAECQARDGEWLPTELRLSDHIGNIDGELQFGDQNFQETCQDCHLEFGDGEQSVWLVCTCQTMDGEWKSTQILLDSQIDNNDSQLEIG" quantitative_result=-0.131
binder="DC-ASGPR Long (Homo sapiens) (protein) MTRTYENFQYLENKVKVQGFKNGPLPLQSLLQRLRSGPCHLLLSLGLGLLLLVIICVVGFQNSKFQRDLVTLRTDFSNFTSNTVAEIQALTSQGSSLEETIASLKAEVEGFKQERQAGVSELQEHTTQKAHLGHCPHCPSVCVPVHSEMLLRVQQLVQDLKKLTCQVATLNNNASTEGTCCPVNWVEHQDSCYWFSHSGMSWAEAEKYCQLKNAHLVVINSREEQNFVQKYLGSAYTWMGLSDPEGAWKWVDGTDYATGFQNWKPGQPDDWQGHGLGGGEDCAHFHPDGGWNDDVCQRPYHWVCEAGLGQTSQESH" quantitative_result=3.37
binder="SJA (Sophora japonica) (protein) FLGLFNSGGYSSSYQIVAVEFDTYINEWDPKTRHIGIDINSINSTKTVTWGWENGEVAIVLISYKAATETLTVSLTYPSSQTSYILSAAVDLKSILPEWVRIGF" quantitative_result=-0.186
binder="DC-ASGPR L+GEE (Homo sapiens) (protein) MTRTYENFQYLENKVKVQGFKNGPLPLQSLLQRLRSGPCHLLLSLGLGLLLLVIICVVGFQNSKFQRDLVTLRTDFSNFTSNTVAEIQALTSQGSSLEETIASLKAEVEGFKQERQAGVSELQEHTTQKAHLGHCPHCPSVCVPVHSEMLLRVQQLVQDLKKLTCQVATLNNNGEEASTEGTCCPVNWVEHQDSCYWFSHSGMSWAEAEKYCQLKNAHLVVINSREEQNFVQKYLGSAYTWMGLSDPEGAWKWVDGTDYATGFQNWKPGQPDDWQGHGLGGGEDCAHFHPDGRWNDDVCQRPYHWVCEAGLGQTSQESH" quantitative_result=4.33
